Molecular target: HLA-DR DRB1*0405 (human)
Experiment: competition with 125I-labelled reference peptide on purified HLA-DR
measured.property: IC50 (nM)
Give bare numbers, in nM.

Given the entry YIQMCTELKLSDYEG (modifications not checked) [Flu.NP.43 peptide …] , report its measured IC50.
2690
